system: ATP; experiment: switch fluorescence ratio, 500 uM ATP over buffer (Cy3 cluster intensity, sum of 5 cycles each) (fold (ratio)); higher = stronger signal-on switching upon ATP binding; sequences stand for … in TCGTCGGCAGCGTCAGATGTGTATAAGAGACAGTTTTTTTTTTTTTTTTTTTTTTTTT…TC; settings: aptamer strand: ATP DNA aptamer (quencher-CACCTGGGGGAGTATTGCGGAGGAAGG + anchor), 100 nM annealed; ATP concentration: 500 uM;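 further: ATP exposure 15 min at 22 °C before imaging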
RECORDED ENDPOINT: switch fluorescence ratio
Answer using only a numeral; do not append any unit.

Solved cases (5 shown):
SEQUENCE TEXT	switch fluorescence ratio
AGCCCTGGCG	0.95
GGTGGAGGGT	0.994
CTTATGATGG	0.987
TCGGCAAGTT	1.2
TATTGGATGC	0.97

Alright, here's another sequence for you.
# input Supply switch fluorescence ratio value. Item: TGTTCTAGTT
# output 1.01

====

tested on: ATP; test: switch fluorescence ratio, 500 uM ATP over buffer (Cy3 cluster intensity, sum of 5 cycles each) (fold (ratio)); higher = stronger signal-on switching upon ATP binding; sequences stand for … in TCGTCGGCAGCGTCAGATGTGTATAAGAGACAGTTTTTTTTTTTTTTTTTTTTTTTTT…TC; conditions: aptamer strand: ATP DNA aptamer (quencher-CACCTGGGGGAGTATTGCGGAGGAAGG + anchor), 100 nM annealed; ATP concentration: 500 uM;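 further: ATP exposure 15 min at 22 °C before imaging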
RECORDED ENDPOINT: switch fluorescence ratio
Answer using only a numeral; do not append any unit.

Solved cases (5 shown):
SEQUENCE TEXT	switch fluorescence ratio
ACGGTTGTTC	1.03
AGGTTTGGAT	0.991
TGGGGTACAC	0.993
GGAGGAGAGG	1.01
TTTAGAATTT	1.01

# input Supply switch fluorescence ratio value. Item: GGGTTTACTG
# output 1

# input Supply switch fluorescence ratio value. Item: CATTGTTGAT
# output 0.989

# input Supply switch fluorescence ratio value. Item: TCCATCGCTT
# output 1.6

# input Supply switch fluorescence ratio value. Item: GGGAGGGCTT
# output 1.05

# input Supply switch fluorescence ratio value. Item: TATTGACATT
# output 1.02

# input Supply switch fluorescence ratio value. Item: TGGTACGGGG
# output 1.02

# input Supply switch fluorescence ratio value. Item: GGTGGTCGGG
# output 0.982

# input Supply switch fluorescence ratio value. Item: CTTTGTGGGG
# output 1.01

# input Supply switch fluorescence ratio value. Item: ATGAAAATCC
# output 1.03

# input Supply switch fluorescence ratio value. Item: CGAGGGTAGA
# output 1.01

# input Supply switch fluorescence ratio value. Item: CCAAGTAAGG
# output 1.08

# input Supply switch fluorescence ratio value. Item: GCGTCTGCGC
# output 0.943

# input Supply switch fluorescence ratio value. Item: TTATGGGAGT
# output 0.966

# input Supply switch fluorescence ratio value. Item: TTAGGGGAGC
# output 0.976

# input Supply switch fluorescence ratio value. Item: ATTATTATGC
# output 0.97

====

tested on: ATP; assay: switch fluorescence ratio, 500 uM ATP over buffer (Cy3 cluster intensity, sum of 5 cycles each) (fold (ratio)); higher = stronger signal-on switching upon ATP binding; sequences stand for … in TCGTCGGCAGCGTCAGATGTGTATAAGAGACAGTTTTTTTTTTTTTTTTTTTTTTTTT…TC; details: aptamer strand: ATP DNA aptamer (quencher-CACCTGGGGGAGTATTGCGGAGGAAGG + anchor), 100 nM annealed; ATP concentration: 500 uM;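 further: ATP exposure 15 min at 22 °C before imaging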
The sequences listed here are annotated with their switch fluorescence ratio.
Answer using only a numeral; do not append any unit.

SEQUENCE TEXT	switch fluorescence ratio
TAGGGTTGCA	1
TTTGAGGCCA	1.04
GGGGGGCATT	0.99
TGTTGTCGGT	0.988
ACACGTGGGC	1.02

# input Supply switch fluorescence ratio value. Item: AGGAATGTTA
# output 1.03

# input Supply switch fluorescence ratio value. Item: CACTCGCCTC
# output 1.13
